efflux ratio: recorded values
system: MDR1 (P-gp), human; experiment: Efflux ratio of permeability in MDCK cells over expressing human MDR1; assay type: ADME, cell-based, Canis lupus familiaris; settings: dog
quantity.kind: efflux ratio

- compound: "COc1nc(C(=O)N[C@H]2COc3ccc(Cl)cc32)ccc1-n1cnc(C)c1"
  quantity.kind: "efflux ratio"
  measured.result: 1.3
- compound: "COc1nc(C(=O)N2CC[C@H](Oc3ccccc3C(F)(F)F)C2)ccc1-n1cnc(C)c1"
  quantity.kind: "efflux ratio"
  measured.result: 1.1
- compound: "COc1cc(/C=C2\\CCCN([C@@H](C)c3ccc(F)cc3)C2=O)ccc1-n1cnc(C)c1"
  quantity.kind: "efflux ratio"
  measured.result: 2.2
- compound: "COc1nc(C(=O)N[C@H]2COc3ccc(Cl)c(F)c32)ccc1-n1cnc(C)c1"
  quantity.kind: "efflux ratio"
  measured.result: 1.4
- compound: "COc1cc(C(=O)N2CC[C@H](Oc3ccccc3C(F)(F)F)C2)cnc1-n1cnc(C)c1"
  quantity.kind: "efflux ratio"
  measured.result: 1.6
- compound: "COc1cc(C(=O)N2CC[C@H](Oc3ccccc3C(F)(F)F)C2)ccc1-n1cnc(C)c1"
  quantity.kind: "efflux ratio"
  measured.result: 2.5
- compound: "COc1cc(C(=O)NCc2cc(-c3cccc(Cl)c3)no2)ccc1-n1cnc(C)c1"
  quantity.kind: "efflux ratio"
  measured.result: 3.8
- compound: "COc1cc(C(=O)NCc2nnc(-c3cccc(Cl)c3)o2)ccc1-n1cnc(C)c1"
  quantity.kind: "efflux ratio"
  measured.result: 8.7
- compound: "COc1nc(C(=O)NC2COc3ccc(Cl)c(C)c32)ccc1-n1cnc(C)c1 (racemic)"
  quantity.kind: "efflux ratio"
  measured.result: 1.8
- compound: "COc1cc(C(=O)N[C@H]2CCc3ccc(Cl)cc32)ccc1-n1cnc(C)c1"
  quantity.kind: "efflux ratio"
  measured.result: 0.5
- compound: "COc1cc(C(=O)NCc2cnc(-c3ccccc3)s2)ccc1-n1cnc(C)c1"
  quantity.kind: "efflux ratio"
  measured.result: 3.2
- compound: "COc1cc(C(=O)NC2COc3cccc(Cl)c32)ccc1-n1cnc(C)c1 (racemic)"
  quantity.kind: "efflux ratio"
  measured.result: 1.7
- compound: "COc1cc(C(=O)NCc2cccc(C(F)(F)F)c2)ccc1-n1cnc(C)c1"
  quantity.kind: "efflux ratio"
  measured.result: 1.8
- compound: "COc1cc(C(=O)N[C@H]2COc3ccc(Cl)cc32)ccc1-n1cnc(C)c1"
  quantity.kind: "efflux ratio"
  measured.result: 1.6
- compound: "COc1cc(C(=O)NCC2(c3ccc(F)cc3)CCC2)ccc1-n1cnc(C)c1"
  quantity.kind: "efflux ratio"
  measured.result: 1.6
- compound: "COc1cc(C(=O)N2CC[C@](O)(COc3ccccc3C(F)(F)F)C2)ccc1-n1cnc(C)c1"
  quantity.kind: "efflux ratio"
  measured.result: 24
- compound: "COc1cc(C(=O)N[C@@H](C)c2ccc(F)cc2)ccc1-n1cnc(C)c1"
  quantity.kind: "efflux ratio"
  measured.result: 1.1
